TEST: Crossover pharmacokinetics in dogs, oral vs 30-min intravenous infusion, LC-MS/MS
Format: in vivo, male beagle dogs
MEASUREMENT_CONDITIONS: male, beagle, dog, plasma, iv, 2 mg/kg, male beagle dogs 1-3 and Mean; 30-min iv infusion; 2 mg/kg/h (free form); read-out: CL of L-lysine-d-amphetamine (converted)
REPORTED_PROPERTY: clearance
Quick note: unit goes after the number.

What value of clearance has been reported for the following compound? CC(Cc1ccccc1)NC(=O)C(N)CCCCN [L-lysine-d-amphetamine] 36.4 mL/min/kg

* * *

I'd be grateful if you could share measured hydrocodone plus hydromorphone concentration for these entries.
TEST: Intranasal bioavailability of hydrocodone conjugates in rats, LC/MS/MS
MEASUREMENT_CONDITIONS: intranasal, 1 mg/kg dose, 60 Minutes
Where a SMILES comes first, the peptide text is derived from it. The star is where a group is joined. X1 = COc1ccc2c3c1O[C@H]1C(O*)=CC[C@H]4[C@@H](C2)N(C)CC[C@]314
Give a bare numeral; the unit ng/mL is implied.

Any idea what its hydrocodone plus hydromorphone concentration is? The compound is CC[C@H](C)[C@H](NC(=O)[C@H](CC(=O)O)NC(=O)[C@@H](N)CC(=O)O)C(=O)OC1=CC[C@H]2[C@H]3Cc4ccc(OC)c5c4[C@@]2(CCN3C)[C@H]1O5 [DDI-HC, Asp-Asp-Ile-Hydrocodone] 16

What does the record list as hydrocodone plus hydromorphone concentration for CC[C@H](C)[C@H](NC(=O)[C@H](Cc1ccccc1)NC(=O)[C@H](Cc1ccccc1)NC(=O)[C@H](Cc1ccc(O)cc1)NC(=O)[C@@H](N)Cc1ccc(O)cc1)C(=O)OC1=CC[C@H]2[C@H]3Cc4ccc(OC)c5c4[C@@]2(CCN3C)[C@H]1O5 [YYFFI[SEQ ID NO: 3]-HC] (H-YYFFI-X1) ? 21

Need hydrocodone plus hydromorphone concentration of CC[C@H](C)[C@H](NC(=O)[C@H](Cc1ccc(O)cc1)NC(=O)[C@@H](N)Cc1ccc(O)cc1)C(=O)OC1=CC[C@H]2[C@H]3Cc4ccc(OC)c5c4[C@@]2(CCN3C)[C@H]1O5 [YYI-HC, Tyr-Tyr-Ile-Hydrocodone] , thanks. 2

Name the recorded hydrocodone plus hydromorphone concentration for COc1ccc2c3c1O[C@H]1C(OC(=O)[C@H](Cc4ccccc4)NC(=O)[C@H](Cc4ccccc4)NC(=O)[C@H](Cc4ccccc4)NC(=O)[C@H](CCC(=O)O)NC(=O)[C@@H](N)CCC(=O)O)=CC[C@H]4[C@@H](C2)N(C)CC[C@]314 [EEFFF[SEQ ID NO: 3]-HC] (H-EEFFF-X1) . 15

* * *

TEST: Oral bioavailability of hydrocodone conjugates in rats, LC/MS/MS
MEASUREMENT_CONDITIONS: male, Sprague-Dawley, rat, plasma, po, 1 mg/kg
REPORTED_PROPERTY: AUC (ng·h/mL)
Field: numeric (ng·h/mL). Do not append units.

Please report the recorded AUC for COc1ccc2c3c1O[C@H]1C(=O)CC[C@H]4[C@@H](C2)N(C)CC[C@]314 [Hydrocodone, reference compound] . 45.1

* * *

TEST: Oral bioavailability in rats at escalating doses, LC/MS/MS
MEASUREMENT_CONDITIONS: male, Sprague-Dawley, rat, in vivo, po, 60 mg/kg
REPORTED_PROPERTY: Tmax (h)
# value in h; strip the unit string

Can you share its Tmax? I mean this compound: CC(Cc1ccccc1)NC(=O)C(N)CCCCN [L-lysine-d-amphetamine] 3
